Recorded IC50 by entry
- tgt: Orexin/Hypocretin receptor type 1 (Homo sapiens)
- Sequence (O43613 whole entry): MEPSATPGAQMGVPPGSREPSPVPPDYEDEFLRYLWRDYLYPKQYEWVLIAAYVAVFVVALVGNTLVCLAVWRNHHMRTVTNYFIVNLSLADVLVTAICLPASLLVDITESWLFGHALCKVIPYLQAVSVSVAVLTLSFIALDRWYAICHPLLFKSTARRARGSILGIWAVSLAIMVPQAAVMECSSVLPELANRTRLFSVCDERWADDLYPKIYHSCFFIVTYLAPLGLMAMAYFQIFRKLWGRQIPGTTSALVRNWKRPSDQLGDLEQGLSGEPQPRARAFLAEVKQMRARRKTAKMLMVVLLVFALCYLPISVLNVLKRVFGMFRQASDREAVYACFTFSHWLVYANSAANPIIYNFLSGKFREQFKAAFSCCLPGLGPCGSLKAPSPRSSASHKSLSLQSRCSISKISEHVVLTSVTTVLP
- protocolText: Antagonist activity at human OX1 receptor expressed in CHO cells assessed as inhibition of calcium mobilization by FLIPR assay
Quick note: unit goes after the number.

Consider the reported IC50 for these compounds:
CCn1nc(C)c2c1CCN(C(C(=O)NC)c1ccccc1)C2CCc1cccc(C)c1 (mixture of isomers): 180 nM
CCc1ccc(CC[C@@H]2c3c(C)nn(CC)c3CCN2[C@@H](C(=O)NC)c2ccccc2)cc1: 1420 nM
CCn1nc(C)c2c1CCN(C(C(=O)NC)c1ccccc1)C2CCc1cccc(F)c1 (mixture of isomers): 402 nM
CCn1nc(C)c2c1CCN([C@@H](C(=O)NC)c1ccccc1)[C@H]2CCc1ccc(C(F)(F)F)cc1: 128 nM
CCn1nc(C)c2c1CCN(C(C(=O)NC)c1ccccc1)C2CCc1ccc(Cl)cc1 (mixture of isomers): 993 nM

Which IC50 value belongs to CCn1nc(C)c2c1CCN(C(C(=O)NC)c1ccccc1)C2CCc1ccc(C)cc1 (mixture of isomers) ?
108 nM

Which IC50 value belongs to CCn1nc(C)c2c1CCN(C(C(=O)NC)c1ccccc1)C2CCc1ccccc1F (mixture of isomers) ?
669 nM

Which IC50 value belongs to `CCn1nc(C)c2c1CCN([C@@H](C(=O)NC)c1ccccc1)[C@H]2CCc1ccc(C(C)C)cc1` ?
161 nM

Which IC50 value belongs to CCn1nc(C)c2c1CCN(C(C(=O)NC)c1ccccc1)C2CCc1cccc(C(F)(F)F)c1 (mixture of isomers) ?
358 nM

Which IC50 value belongs to `CCn1nc(C)c2c1CCN([C@@H](C(=O)NC)c1ccccc1)[C@H]2COc1ccc(C)cc1` ?
10000 nM

Which IC50 value belongs to `CCn1nc(C)c2c1CCN([C@@H](C(=O)NC)c1ccccc1)[C@@H]2CCc1ccc(C(C)C)cc1` ?
1920 nM

Which IC50 value belongs to CCn1nc(C)c2c1CCN(C(C(=O)NC)c1ccccc1)C2CCc1ccccc1C (mixture of isomers) ?
1030 nM

====

- tgt: Orexin receptor type 2 (Homo sapiens, UniProt O43614)
- Sequence (O43614 whole entry): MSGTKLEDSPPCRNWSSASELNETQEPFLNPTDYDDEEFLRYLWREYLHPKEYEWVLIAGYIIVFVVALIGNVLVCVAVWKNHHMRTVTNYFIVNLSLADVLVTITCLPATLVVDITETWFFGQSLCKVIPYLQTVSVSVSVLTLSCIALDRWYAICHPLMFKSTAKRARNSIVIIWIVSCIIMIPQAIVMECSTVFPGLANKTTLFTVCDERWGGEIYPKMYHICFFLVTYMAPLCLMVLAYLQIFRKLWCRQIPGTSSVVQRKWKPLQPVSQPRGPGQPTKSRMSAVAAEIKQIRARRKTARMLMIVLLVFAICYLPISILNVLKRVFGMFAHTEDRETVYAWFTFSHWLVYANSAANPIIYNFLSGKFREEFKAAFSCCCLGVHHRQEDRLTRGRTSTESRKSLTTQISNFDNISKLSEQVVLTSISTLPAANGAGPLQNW
- protocolText: Antagonist activity at human OX2 receptor expressed in CHO cells assessed as inhibition of calcium mobilization by FLIPR assay
IC50 strictly under 20 nM means yes (1); at 20 nM or over means no (0).

CCn1nc(C)c2c1CCN(C(C(=O)NC)c1ccccc1)C2CCc1cccc(C)c1 (mixture of isomers): yes (1)

Criterion: IC50 strictly below 20 nM. Is it met by `CCn1nc(C)c2c1CCN([C@@H](C(=O)NC)c1ccccc1)[C@@H]2CCc1ccc(C(C)C)cc1` ?
no (0)

Criterion: IC50 strictly below 20 nM. Is it met by `CCc1ccc(CC[C@@H]2c3c(C)nn(CC)c3CCN2[C@@H](C(=O)NC)c2ccccc2)cc1` ?
no (0)

Criterion: IC50 strictly below 20 nM. Is it met by `CCc1ccc(CC[C@H]2c3c(C)nn(CC)c3CCN2[C@@H](C(=O)NC)c2ccccc2)cc1` ?
yes (1)

Criterion: IC50 strictly below 20 nM. Is it met by `CCn1nc(C)c2c1CCN([C@@H](C(=O)NC)c1ccccc1)[C@H]2COc1ccc(C)cc1` ?
yes (1)

Criterion: IC50 strictly below 20 nM. Is it met by CCn1nc(C)c2c1CCN(C(C(=O)NC)c1ccccc1)C2CCc1ccccc1F (mixture of isomers) ?
no (0)

Criterion: IC50 strictly below 20 nM. Is it met by CCn1nc(C)c2c1CCN(C(C(=O)NC)c1ccccc1)C2CCc1cccc(F)c1 (mixture of isomers) ?
yes (1)

Criterion: IC50 strictly below 20 nM. Is it met by CCn1nc(C)c2c1CCN(C(C(=O)NC)c1ccccc1)C2CCc1ccccc1C (mixture of isomers) ?
no (0)
